Target: Cytochrome P450 2C9 (Homo sapiens)
Experiment: enhancers of cytochrome P450 2C9 turnover – biochemical, luminescence, primary screen (AID 1024);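 note: 0 = sulfaphenazole-blocked wells and 1 = vehicle-only wells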
Settings: recombinant CYP2C9, luciferin-H conversion, at 5 µM, hits give high values, factor 1 = untreated enzyme, 0 = blocked
The whole screen tested about 96,000 compounds, of which about 1,400 (1.5%) were called active. Many of the other results were omitted from the sample, so actives are more common in it than they were.
readout_name: activation factor
Keep the answer to the number alone.

CCOc1cc(C)c(Cl)cc1S(=O)(=O)n1nnc2ccccc21 | 0.6
CC1CC(C)CN(S(=O)(=O)c2cccc(C(=O)N3C(=O)c4cccc(N)c4C3=O)c2)C1 (stereo unspecified) | 0.9
Cc1cc2cc3c(cc2nc1SCC(=O)Nc1c(C)cccc1C)CCC3 | 0.4
COc1cccc(C(=O)Nc2ccc(NC(=O)c3ccco3)cn2)c1 | 0.8
Cc1cc(C)nc(NC(=O)Nc2ccccc2C(F)(F)F)n1 | 2.9
CCn1cc(C(=O)N/N=C(/C)c2ccc(F)cc2)c(=O)c2cc(F)c(N3CCCC3)cc21 | 0.9
C=CCc1cccc2cc(C(=O)N3CCN(C(=O)OCC)CC3)c(=O)oc12 | 2.1
Cn1nc([N+](=O)[O-])nc1Sc1ccc(C(C)(C)C)cc1 | 0.9
O=C(c1cc(-c2ccc(O)cc2)on1)N1CCCc2ccccc21 | 0.4
CN1C2CCC1/C(=C\c1ccccc1Cl)C(=O)/C2=C\c1ccccc1Cl | 1.8

Field request: activation factor | item: Cc1ccc2nc(/C(C#N)=C\c3ccc(OC(=O)c4cccs4)cc3)[nH]c2c1 0.2

Field request: activation factor | item: O=S(=O)(NCCOc1cccc2cccnc12)c1ccc(F)cc1 3.3

Field request: activation factor | item: COC(=O)c1ccc(NC(=O)c2ccco2)cc1 0.8

Field request: activation factor | item: Cc1cc([N+](=O)[O-])ccc1NCc1cccc([N+](=O)[O-])c1 1

Field request: activation factor | item: N#Cc1ccc(-c2ccc(Cl)cc2)nc1Oc1ccc(F)cc1 0.9

Field request: activation factor | item: CC(CC(=O)Nc1cc(C(F)(F)F)ccc1Cl)c1ccccc1 (stereo unspecified) 2.4

Field request: activation factor | item: O=C(COc1ccccc1)NCc1ccc2c(c1)OCO2 0.7

Field request: activation factor | item: O=C(NCCCN1CCN(C2CCCCC2)CC1)Nc1ccccc1C(F)(F)F 1

Field request: activation factor | item: COc1ccc(Cl)cc1NC(=O)c1oc(C)nc1C 2.7

Field request: activation factor | item: Cc1ccc(NC(=S)NC2CCCC2)cc1 0.7

Field request: activation factor | item: CCOc1ccccc1NC(=O)CCc1ccc(C)o1 2.8

Field request: activation factor | item: Cc1cccc(NC(=O)C2CCCN2S(=O)(=O)c2ccc(F)cc2)c1C (stereo unspecified) 2.5

----------
# activation factor per record follows
Target: Cytochrome P450 2C9 (Homo sapiens) (UniProt P11712)
Sequence (P11712 whole entry, looked up): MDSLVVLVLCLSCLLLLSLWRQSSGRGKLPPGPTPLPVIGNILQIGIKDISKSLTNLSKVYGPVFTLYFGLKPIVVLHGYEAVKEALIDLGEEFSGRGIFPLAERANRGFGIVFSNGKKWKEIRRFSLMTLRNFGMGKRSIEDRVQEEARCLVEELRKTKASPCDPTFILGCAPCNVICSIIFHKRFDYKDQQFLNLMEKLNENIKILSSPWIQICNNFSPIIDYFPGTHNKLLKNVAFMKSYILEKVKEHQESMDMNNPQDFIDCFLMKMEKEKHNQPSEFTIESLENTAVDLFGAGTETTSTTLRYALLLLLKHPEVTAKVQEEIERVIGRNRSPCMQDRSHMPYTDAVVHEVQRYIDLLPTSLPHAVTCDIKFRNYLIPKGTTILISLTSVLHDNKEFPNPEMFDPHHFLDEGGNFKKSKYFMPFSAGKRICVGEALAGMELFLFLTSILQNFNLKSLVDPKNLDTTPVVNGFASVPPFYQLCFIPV
Experiment: enhancers of cytochrome P450 2C9 turnover – biochemical, luminescence, primary screen (AID 1024);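 note: 0 = sulfaphenazole-blocked wells and 1 = vehicle-only wells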
Conditions: recombinant CYP2C9, luciferin-H conversion, at 5 µM, hits give high values, factor 1 = untreated enzyme, 0 = blocked
In all, about 96,000 compounds went through this assay and about 1,400 (1.5%) were called active. This is one part of a sample in which actives are shown more often than they occur.
Keep the answer to the number alone.

COc1ccccc1CNC(=O)C1CCCN(S(=O)(=O)c2cccc3cccnc23)C1 (stereo not drawn) | 2.9
COc1ccc(NC(=O)C2CCCN(S(=O)(=O)c3cccc4cccnc34)C2)cc1OC (stereo not drawn) | 1.2
CCN(CC)c1ccc(/C=N/Nc2nc(C)cc(=O)[nH]2)cc1 | 1.2
O=C(Nc1ccc2c(c1)OCO2)C1CC(c2c(F)cccc2Cl)=NO1 (stereo not drawn) | 2.6
COc1cccc2cc(C(=O)N(C)C)c(=O)oc12 | 2

// lookup activation factor | system=Cytochrome P450 2C9 (Homo sapiens) (UniProt P11712) | key= CC1CC(C)CN(C/C=C/c2ccccc2[N+](=O)[O-])C1 (stereo not drawn) 0.9

// lookup activation factor | system=Cytochrome P450 2C9 (Homo sapiens) (UniProt P11712) | key= CC(C)C(=O)Nc1cccc(C(=O)Nc2ccc3c(c2)OCO3)c1 0.4

----------
Biological target: Cytochrome P450 2C9 (Homo sapiens)
Assay: enhancers of cytochrome P450 2C9 turnover – biochemical, luminescence, primary screen (AID 1024);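 note: 0 = sulfaphenazole-blocked wells and 1 = vehicle-only wells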
Conditions: recombinant CYP2C9, luciferin-H conversion, at 5 µM, hits give high values, factor 1 = untreated enzyme, 0 = blocked
The campaign covered roughly 96,000 compounds. About 1,400 (1.5%) were called active. What follows is part of a selection rich in actives, with near analogues and random picks from the rest.
# activation factor per record follows

Record excerpt, results attached:
CC1CCN(C(NC(=O)c2ccco2)C(=O)c2ccccc2)CC1 (configuration not stated) | 0.3 (inactive)
CCN(c1ccccc1)S(=O)(=O)c1cccc(C(=O)O)c1 | 0.7 (inactive)
Cc1nn(-c2ccccc2)c(Cl)c1C(=O)Nc1ccccc1 | 1.5 (inactive)

Field request: activation factor | item: c1ccc(COc2ccccc2CNCc2cccnc2)cc1 1.1 (inactive)

Field request: activation factor | item: CCOc1ccc(C(=O)Nc2cc(OC)ccc2OC)cc1 2.1 (active)

Field request: activation factor | item: Cc1cccc(N(CC(=O)Nc2ccc(-c3nc4ccc(C)cc4s3)cc2)S(C)(=O)=O)c1 0.9 (inactive)

Field request: activation factor | item: CNS(=O)(=O)c1cnccc1N1CCN(c2cccc(C)c2)CC1 0.4 (inactive)

Field request: activation factor | item: CCc1cc(C(c2ccccc2OC)N2CCOCC2)c(NC(=O)c2ccccc2)s1 (configuration not stated) 0.1 (inactive)

Field request: activation factor | item: O=C(Nc1nnc(C2CC2)s1)c1ccccn1 1.3 (inactive)

Field request: activation factor | item: CCC(C)NC(=O)c1c(N)n(/N=C/c2cccs2)c2nc3ccccc3nc12 (configuration not stated) 0.8 (inactive)

Field request: activation factor | item: CCOc1ccccc1NC(=O)Nc1cc(OC)ccc1OC 1 (inactive)

Field request: activation factor | item: CCOc1ccc(S(=O)(=O)Nc2ccc(S(=O)(=O)Nc3cc(OC)ccc3OC)cc2)cc1 0.2 (inactive)

----------
Target: Cytochrome P450 2C9 (Homo sapiens) (UniProt P11712)
Experiment: enhancers of cytochrome P450 2C9 turnover – biochemical, luminescence, primary screen (AID 1024);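 note: 0 = sulfaphenazole-blocked wells and 1 = vehicle-only wells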
Details: recombinant CYP2C9, luciferin-H conversion, at 5 µM, hits give high values, factor 1 = untreated enzyme, 0 = blocked
Screen size: about 96,000 compounds; about 1,400 (1.5%) were called active. What follows is part of a selection rich in actives, with near analogues and random picks from the rest.
Classify as follows. Reported activation factor greater than or equal to 1: MET. Reported activation factor below: NOT MET.

Consider the worked cases shown below.
CSc1nc(-c2ccco2)nn1C(=O)CCc1ccccc1 | MET
COc1cccc(C(=O)NNC(=O)c2ccccc2Br)c1 | MET
COc1cccc(C(=O)Nc2ccc(N3CCCC3)cc2)c1 | NOT MET
CCCCOCCCNC(=O)c1ccccc1OCC | MET
O=C(NCc1ccccn1)c1cc2ccccc2oc1=O | MET
C=CCn1c(COc2ccccc2)nnc1SCC(=O)NCC(=O)OCC | MET
COc1ccc(-c2nc(-c3ccccc3)no2)c(OC)c1 | MET
O=C(COc1ccc(Br)cc1F)NC1CCN(Cc2ccccc2)CC1 | NOT MET

Given COCc1cc(C)nc2sc3c(=O)n(-c4cccc5ccccc45)nnc3c12 , state whether its activation factor is at least 1. NOT MET

Given C=CCNC(=O)c1cc(-c2ccccc2O)on1 , state whether its activation factor is at least 1. MET

----------
Molecular target: Cytochrome P450 2C9 (Homo sapiens)
Assay: enhancers of cytochrome P450 2C9 turnover – biochemical, luminescence, primary screen (AID 1024);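 note: 0 = sulfaphenazole-blocked wells and 1 = vehicle-only wells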
Settings: recombinant CYP2C9, luciferin-H conversion, at 5 µM, hits give high values, factor 1 = untreated enzyme, 0 = blocked
In all, about 96,000 compounds went through this assay and about 1,400 (1.5%) were called active. The sample as a whole holds a higher share of actives than the screen did.
readout_name: activation factor

COc1ccc(C(=O)N2CCc3cc(OC)c(OC)cc3C2c2cccc([N+](=O)[O-])c2)cc1 (stereo unspecified) | 0.4 (inactive)
O=C1c2ccccc2C(=O)N1CCCc1nc(-c2ccccc2)no1 | 0.8 (inactive)
CCOc1ccc(NC(=O)C2CC(=O)N=C(N)S2)cc1 (stereo unspecified) | 1 (inactive)
CCN(CC)Cc1csc2ccc(Br)cc12 | 1.1 (inactive)
CCOc1ccccc1C(=O)NCCCn1ccnc1 | 0.3 (inactive)

Read the next record carefully.
Field request: activation factor | item: CCCOc1ccccc1C(=O)NCCCC(=O)O 1.1 (inactive)

----------
Target: Cytochrome P450 2C9 (Homo sapiens) (UniProt P11712)
Assay: enhancers of cytochrome P450 2C9 turnover – biochemical, luminescence, primary screen (AID 1024);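 note: 0 = sulfaphenazole-blocked wells and 1 = vehicle-only wells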
Settings: recombinant CYP2C9, luciferin-H conversion, at 5 µM, hits give high values, factor 1 = untreated enzyme, 0 = blocked
The campaign covered roughly 96,000 compounds. About 1,400 (1.5%) were called active. The full list was thinned out, with actives kept by preference.
Classify as follows. Reported activation factor greater than or equal to 0.9: TRUE. Reported activation factor below: FALSE.

Cc1nn(C)c(Oc2ccccc2)c1CCNS(=O)(=O)c1ccc(F)cc1 | FALSE
COc1ccc(N(CC(=O)N/N=C/c2cccs2)S(=O)(=O)c2ccc(OC)c(OC)c2)cc1 | FALSE
Cc1ccc(S(=O)(=O)NCC(=O)OCC(=O)N2CCc3ccccc32)cc1 | TRUE
Cc1ccn(C(CC(=O)c2ccc(Br)cc2)C(=O)O)n1 (stereo unspecified) | TRUE
Cc1ccc(S(=O)(=O)N(C)CC(=O)N2CCc3ccccc32)cc1 | TRUE

Given O=C(NC1CCCCC1)C1CC(=O)N(CCc2ccccc2)C1 (stereo unspecified) , state whether its activation factor is at least 0.9. TRUE

Given Cc1cc(SCC(=O)c2ccccc2)nc(SCC(=O)c2ccccc2)n1 , state whether its activation factor is at least 0.9. FALSE
